Test system: HL-60
Assay: NCI tumour cell line growth inhibition, 48 h
The source made the active and inactive calls. Rule as the data show it: active = GI50 up to about 1.1 µM and inactive = higher.
Outcome codes: active, inactive

>>> df
                                   molecule  test_system  label_value
0  CCOC(=O)NC(=O)c1cn(CCCOC(=O)CCCCCCCCCCC(=O)OCCCn2cc(C(=O)NC(=O)OCC)c(=O)[nH]c2=O)c(=O)[nH]c1=O        HL-60     inactive
1  O=[N+]([O-])c1ccc(C2=Nc3ccccc3[S+]([O-])C(c3ccccc3)C2)cc1 (stereo not given)        HL-60     inactive
2  COc1ccc2c3c1OC1C(OC)(OC)CC4(C=C2)CN(C)CCC314 (stereo not given)        HL-60     inactive
3  CC(=O)OC1CC2C(=O)C(=O)C1(C)C2(C)C (stereo not given)        HL-60     inactive
4    COc1ccc(Nc2nc(N)c(C(=O)c3ccccc3)s2)cc1        HL-60       active
5  Cc1c(NC(=O)C(C)(C)Br)c(=O)oc2c(C)c3occc(=O)c3cc12        HL-60     inactive
6  CC(=O)CC(=O)Nn1c(-c2cccs2)nc2ccc(I)cc2c1=O        HL-60     inactive
7  C/C=C/[C@@H]1O[C@H](CC#C[Si](C)(C)C)[C@@]2(C=O)C(C)=CC[C@H](C(C)C)[C@@H]12        HL-60     inactive
8                               C1CSCCSCCS1        HL-60     inactive
9  CCOC1(OCC)N=C(N)C2(C#N)C3(C(=O)N(C(C)C)N=C3C)C12C#N (stereo not given)        HL-60       active

Data provenance: ChEMBL document CHEMBL1201862
